Test: Components of the Cytosolic LPS Sensing Pathway: Gene Identification via Genome-wide siRNA Screen;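 note: robust z of the log signal after scaling to non-targeting control siRNA wells of the plate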
Conditions: RAW264.7 macrophages, IL-1a HTRF, actives lie on both sides, screened at 100 nM (by protocol), cells primed 5 h with Pam3CSK4 first
The campaign covered roughly 53,000 sequences. About 3,700 (7%) were called active. The sample as a whole holds a higher share of actives than the screen did.
# label = Yes if z-score < 0.2 else No

• GGUAAAGCAGUACCUUUCUTT against Mitf = No
• GGACAAGCAAGGUCAAUCATT against Taar1 = Yes
• CCUGAAGAGGAUGAUAUGGTT against Fam221a = Yes
• GGAGAUAACAGAUCUGUUUTT against Fam114a2 = Yes
• GUUUCUGGAGACGGUGGAGTT against Rpl10a = No

----------
Test: Components of the Cytosolic LPS Sensing Pathway: Gene Identification via Genome-wide siRNA Screen;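 note: robust z of the log signal after scaling to non-targeting control siRNA wells of the plate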
Details: RAW264.7 macrophages, IL-1a HTRF, actives lie on both sides, screened at 100 nM (by protocol), cells primed 5 h with Pam3CSK4 first
Hit rate of the full screen: of about 53,000 sequences, about 3,700 (7%) were called active. The full list was thinned out, with actives kept by preference.
Entry flag: 1.0 if z-score reaches 0.6; 0.0 if it does not.

- GGUCUUGGAGUUGCUAAUUTT against Med4: 1.0
- CGUGGUCAUCUGGUAUGAGTT against Zfp653: 1.0
- GGAAUUAUAAAAGACCACGTT against Kctd12b: 1.0
- CGAUACACUGGUGCCCUAUTT against Tmem201: 0.0
- GGCCUGCUUCAAACAGUUUTT against Slc1a6: 1.0
- GGACAAACUCCGAGACUCCTT against Utf1: 0.0
- GGAUCAGAACUUAUCUGUGTT against Utp23: 0.0
- GGUCUCAGACACCUGACUCTT against Opa3: 1.0
- GCCAAUUGAGUCGUCUAUCTT against Rps6ka1: 1.0
- GGAUAAAGGAAAAGAAACATT against Rcvrn: 0.0
- GGAGAAGAGAUCCCUGAACTT against Neurod2: 0.0
- GGUGUCAGAAGCAGUGUAUTT against Treml1: 0.0

----------
Experiment: Components of the Cytosolic LPS Sensing Pathway: Gene Identification via Genome-wide siRNA Screen;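 note: robust z of the log signal after scaling to non-targeting control siRNA wells of the plate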
Conditions: RAW264.7 macrophages, IL-1a HTRF, actives lie on both sides, screened at 100 nM (by protocol), cells primed 5 h with Pam3CSK4 first
Among all 53,000 sequences or so, about 3,700 (7%) were called active.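 The calls were made as follows: active = gene knockdowns whose robust z-score for IL-1 alpha signal is at least 2 or at most -2, so actives lie on both sides; inactive = the rest.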 Shown is part of a subset that was picked to be rich in actives.
Outcomes: active, inactive

* GGAAGGAUAUGAGAAUUUCTT against Nt5c3 | active
* GGUAAAACCCAAUAGUAACTT against Gclm | inactive
* GGUCGAUUUGUCCUUGUGCTT against Rassf7 | active
* GGUGUGUUAAGGUUUUUAATT against Marchf1 | active
* CCCUAGAUGGCCGAAAUAUTT against Dazap1 | inactive
* CCAGAGUAAUUCAUCAUACTT against Agxt | inactive
* GGAAGUCGGGCAAAUACAATT against Tacstd2 | active
* GGAUCCACAGUCAUUCAGATT against Sike1 | inactive
* GCAAGUCCUCUACCUUCUCTT against Vmn1r210 | inactive
* GGCAAGGACUCCAAGGACATT against Wdr45 | inactive
* GGAUGUGCCAUUGAAGAUCTT against Atg4c | active
* GGAUAUUGGUGGCACUUUATT against Med6 | inactive
